// data source = patent US8163909B2

- PROTOCOL SUMMARY: Microsomal stability assay, rat liver microsomes
- CONDITION DETAILS: rat liver microsomal data
// assign TRUE if RLM falls strictly below 100 µL/min/mg, else FALSE (ties count as FALSE)

| STRUCTURE SMILES | CLASSIFICATION |
| --- | --- |
| COCC(=O)N[C@@H](Cc1cccc(F)c1)[C@H](O)CN[C@H]1CC2(CCC2)Oc2c1cc(CC(C)C)cc2-n1ccnc1 | FALSE |
| COCC(=O)N[C@@H](Cc1cccc(-c2nccs2)c1)[C@H](O)CN[C@H]1CC2(CCC2)Oc2ncc(CC(C)(C)F)cc21 | TRUE |
| COCC(=O)N[C@@H](Cc1cc(F)cc(F)c1)[C@H](O)CN[C@H]1CC2(CCC2)Oc2c1cc(CC(C)(C)C)cc2-n1ccnc1 | FALSE |
| COCC(=O)N[C@@H](Cc1cc(F)cc(F)c1)[C@H](O)CN[C@H]1CC2(CCC2)Oc2c(-c3cncs3)cc(CC(C)(C)C)cc21 | FALSE |
| C#Cc1ccc(C[C@H](NC(=O)[C@@H](C)OC)[C@H](O)CN[C@H]2CC3(CCC3)Oc3ncc(CC(C)(C)C)cc32)cc1 | TRUE |
| CC(C)(C)Cc1cnc2c(c1)[C@@H](NC[C@@H](O)[C@H](Cc1ccc3c(c1)OCO3)NC(=O)[C@H]1CCC(=O)C1)CC1(CCC1)O2 | FALSE |

* * *

- PROTOCOL SUMMARY: Microsomal stability assay, rat liver microsomes
- CONDITION DETAILS: rat liver microsomes
Measured RLM values are reported for all entries that follow.
EXPERIMENTAL ENDPOINT: RLM (µL/min/mg)

| MOLECULE | U | VALUE REPORTED |
| --- | --- | --- |
| COCC(=O)N[C@@H](Cc1cc(F)cc(F)c1)[C@H](O)CN[C@H]1CC2(CCC2)Oc2c1cc(C1CC1)cc2-n1ccnc1 [compound 706] | µL/min/mg | 33 |
| COCC(=O)N[C@H](Cc1cccc(-c2nccs2)c1)[C@@H](O)CN[C@H]1CC2(CCC2)Oc2ccc(CC(C)(C)C)cc21 [compound 701] | µL/min/mg | 160 |
| COCC(=O)N[C@@H](Cc1cc(F)cc(F)c1)[C@H](O)CN[C@H]1CC2(CCC2)Oc2c1cc(CC(C)C)nc2-c1nccn1C [compound 714] | µL/min/mg | 43 |
| CC(=O)N[C@@H](Cc1cccc(-c2ncc[nH]2)c1)[C@H](O)CN[C@H]1CC2(CCC2)Oc2ncc(CC(C)(C)C)cc21 [Example 429] | µL/min/mg | 37 |
| CC(=O)N[C@@H](Cc1cccc(C#N)c1)[C@H](O)CN[C@H]1CC2(CCC2)Oc2c(-c3ccncc3)cc(CC(C)(C)C)cc21 [compound 637] | µL/min/mg | 105 |
| COCC(=O)N[C@@H](Cc1ccc2c(c1)OCO2)[C@H](O)CN[C@H]1CC2(CCC2)Oc2c1cc(CC(C)C)nc2Cl [compound 656] | µL/min/mg | 180 |

* * *

- PROTOCOL SUMMARY: Microsomal stability assay, rat liver microsomes;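 further: rat liver microsomes (0.25 mg/mL) with about 1 µM compound plus 1 mM NADPH, pH 7.4, 37 °C for 30 min, parent left measured by LC-MS/MS against 0 min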
- CONDITION DETAILS: rat liver microsomal data

| MOLECULE | RLM (µL/min/mg) |
| --- | --- |
| CO[C@H](C)C(=O)N[C@@H](Cc1cc(-c2nccs2)ccc1F)[C@H](O)CN[C@H]1CC2(CCC2)Oc2ncc(CC(C)(C)C)cc21 [compound 898] | 121 |
| CC(C)(C)Cc1cnc2c(c1)[C@@H](NC[C@@H](O)[C@H](Cc1ccc(F)cc1)NC(=O)[C@@H]1CCO1)CC1(CCC1)O2 [Example 441] | 124 |
| CO[C@H](C)C(=O)N[C@@H](Cc1cccc(-c2nccs2)c1)[C@H](O)CN[C@H]1CC2(CCC2)Oc2ncc(CC(C)(C)F)cc21 [Example 831] | 45 |
| COCC(=O)N[C@@H](Cc1cccc(-n2cccn2)c1)[C@H](O)CN[C@H]1CC2(CCC2)Oc2ncc(CC(C)(C)C)cc21 [compound 854] | 210 |
| CO[C@H](C)C(=O)N[C@@H](Cc1cc(F)cc(F)c1)[C@H](O)CN[C@H]1CC2(CCC2)Oc2c(-c3ccncc3)cc(Cl)cc21 [compound 561] | 426 |
| COCC(=O)N[C@@H](Cc1ccc(F)cc1)[C@H](O)CN[C@@H]1CC2(CCC2)Oc2c1cc(CC(C)(C)C)nc2C#N [compound 492] | 190 |

* * *

pIC50 by entry:
- TESTED SYSTEM: CYP3A4 (CYP3A) (Homo sapiens);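 further: inhibition of CYP3A-mediated 1-hydroxymidazolam formation after 10 min incubation with NADPH, quantified by HPLC MS relative to metabolite produced without test compound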
- Sequence (P08684 2-503): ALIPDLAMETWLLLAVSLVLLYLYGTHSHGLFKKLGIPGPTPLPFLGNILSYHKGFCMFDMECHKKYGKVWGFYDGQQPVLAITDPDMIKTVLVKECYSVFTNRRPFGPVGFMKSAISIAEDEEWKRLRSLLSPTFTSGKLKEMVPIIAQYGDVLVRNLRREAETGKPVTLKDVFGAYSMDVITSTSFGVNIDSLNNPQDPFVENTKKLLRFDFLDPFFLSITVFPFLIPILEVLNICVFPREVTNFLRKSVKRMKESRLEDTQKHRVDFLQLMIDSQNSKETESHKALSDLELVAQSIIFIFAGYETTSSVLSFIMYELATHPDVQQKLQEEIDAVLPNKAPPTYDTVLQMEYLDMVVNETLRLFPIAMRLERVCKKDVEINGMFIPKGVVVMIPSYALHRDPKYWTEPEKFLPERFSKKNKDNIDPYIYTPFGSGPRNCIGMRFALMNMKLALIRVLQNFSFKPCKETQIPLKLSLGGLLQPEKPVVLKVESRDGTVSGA
- PROTOCOL SUMMARY: in vitro
- CONDITION DETAILS: microsomes, pH 7.4
pIC50: −log10 of the molar value.

| COMPOUND | TESTED SYSTEM | pIC50 |
| --- | --- | --- |
| C[C@H](F)C(=O)N[C@@H](Cc1cccc(F)c1)[C@H](O)CN[C@H]1CC2(CCC2)Oc2ncc(CC(C)(F)F)cc21 [compound 608] | CYP3A4 (CYP3A) (Homo sapiens) | 5.35 |
| COCC(=O)N[C@@H](Cc1cc(F)cc(F)c1)[C@H](O)CN[C@H]1CC2(CCC2)Oc2c(-c3cncn3C)cc(CC(C)C)cc21 [compound 631] | CYP3A4 (CYP3A) (Homo sapiens) | 7.00 |
| CC(=O)N[C@@H](Cc1ccccc1)[C@H](O)CN[C@H]1CC2(CCC2)Oc2c1cc(CC(C)(C)C)nc2-c1ccncc1 [Example 542] | CYP3A4 (CYP3A) (Homo sapiens) | 6.70 |
| COCC(=O)N[C@@H](Cc1ccc(F)cc1)[C@H](O)CN[C@H]1CC(C)(C)Oc2c1cc(Br)c1c2OCO1 [compound 745] | CYP3A4 (CYP3A) (Homo sapiens) | 6.30 |
| COC(OC)C(=O)N[C@@H](Cc1ccc2c(c1)OCO2)[C@H](O)CN[C@H]1CC2(CCC2)Oc2ncc(CC(C)(C)C)cc21 [Example 523] | CYP3A4 (CYP3A) (Homo sapiens) | 7.00 |
| CC(C)(C)Cc1cnc2c(c1)[C@@H](NC[C@@H](O)[C@H](Cc1cc(F)cc(-c3nccs3)c1)NC(=O)[C@@H]1CCCO1)CC1(CCC1)O2 [Example 879] | CYP3A4 (CYP3A) (Homo sapiens) | 6.70 |
| CC(=O)N[C@@H](Cc1cc(F)cc(F)c1)[C@H](O)CN[C@H]1CC2(CCC2)Oc2c(-c3ccncc3)cc(Cl)cc21 [compound 582] | CYP3A4 (CYP3A) (Homo sapiens) | 7.00 |
| CC(=O)N[C@@H](Cc1ccc(F)c(-c2nccs2)c1)[C@H](O)CN[C@H]1CC2(CCC2)Oc2ccc(CC(C)(C)C)cc21 [Example 640] | CYP3A4 (CYP3A) (Homo sapiens) | 6.15 |
| CC(=O)N[C@@H](Cc1ccc2c(c1)OCO2)[C@H](O)CN[C@H]1CC(C)(C)Oc2ncc(CC(C)(C)C)cc21 [compound 679] | CYP3A4 (CYP3A) (Homo sapiens) | 6.70 |
| CC(=O)C(C)(C)C(=O)N[C@@H](Cc1cccc(F)c1)[C@H](O)CN[C@H]1CC2(CCC2)Oc2ncc(CC(C)(C)C)cc21 [compound 467] | CYP3A4 (CYP3A) (Homo sapiens) | 6.40 |
| CO[C@H](C)C(=O)N[C@@H](Cc1ccc2c(c1)OCO2)[C@H](O)CN[C@H]1CC2(CCC2)Oc2ccc(C[C@H](C)F)cc21 [compound 555] | CYP3A4 (CYP3A) (Homo sapiens) | 6.40 |
| CC(C)(C)Cc1cnc2c(c1)[C@@H](NC[C@@H](O)[C@H](Cc1ccc(F)cc1)NC(=O)[C@@H]1CN(Cc3nccs3)CCO1)CC1(CCC1)O2 [compound 769] | CYP3A4 (CYP3A) (Homo sapiens) | 6.40 |
| COCC(=O)N[C@@H](Cc1ccc2c(c1)OCO2)[C@H](O)CN[C@H]1CC2(CCC2)Oc2ccc(C[C@@H](C)F)cc21 [compound 498] | CYP3A4 (CYP3A) (Homo sapiens) | 6.30 |

* * *

Collected IC50 values appear next to each entry.
- TESTED SYSTEM: CYP2D6 (Homo sapiens)
- Sequence (P10635 whole entry): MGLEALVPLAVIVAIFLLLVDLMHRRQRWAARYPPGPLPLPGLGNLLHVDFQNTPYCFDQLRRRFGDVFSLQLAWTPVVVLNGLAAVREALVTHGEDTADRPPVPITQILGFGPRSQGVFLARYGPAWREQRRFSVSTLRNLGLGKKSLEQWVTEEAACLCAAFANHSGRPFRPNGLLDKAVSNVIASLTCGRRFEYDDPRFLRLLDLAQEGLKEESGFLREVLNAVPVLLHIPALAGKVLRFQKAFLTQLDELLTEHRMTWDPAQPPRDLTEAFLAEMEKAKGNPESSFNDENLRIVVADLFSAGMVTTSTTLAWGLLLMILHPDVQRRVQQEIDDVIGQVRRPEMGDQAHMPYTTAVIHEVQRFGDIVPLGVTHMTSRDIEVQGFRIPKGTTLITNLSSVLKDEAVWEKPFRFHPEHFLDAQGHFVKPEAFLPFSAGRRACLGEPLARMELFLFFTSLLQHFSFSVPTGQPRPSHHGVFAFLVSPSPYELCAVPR
- PROTOCOL SUMMARY: CYP2D6 inhibition assay (bufuralol, pooled human liver microsomes)
- CONDITION DETAILS: 2D6 IC50 (uM), CYP2D6 inhibition

| STRUCTURE SMILES | U | IC50 |
| --- | --- | --- |
| COCC(=O)N[C@@H](Cc1cc(F)cc(F)c1)[C@H](O)CN[C@H]1CC(C)(C)Oc2c1cc(CC(C)C)c1c2OCO1 | µM | 8.2 |
| COCC(=O)N[C@@H](Cc1cc(F)cc(-c2nccs2)c1)[C@H](O)CN[C@H]1CC2(CCC2)Oc2cnc(CC(C)(C)F)cc21 | µM | 0.5 |
| COCC(=O)N[C@@H](Cc1cc(F)cc(F)c1)[C@H](O)CN[C@H]1CC2(CCC2)Oc2c1cc(CC(C)C)nc2-c1nccn1C | µM | 2.2 |
| Cc1ccc(CN2CCO[C@H](C(=O)N[C@@H](Cc3ccc(F)cc3)[C@H](O)CN[C@H]3CC4(CCC4)Oc4ncc(CC(C)(C)C)cc43)C2)cc1 | µM | 6.8 |
| COCC(=O)N[C@H](Cc1cccc(-c2nccs2)c1)[C@@H](O)CN[C@H]1CC2(CCC2)Oc2ccc(CC(C)(C)C)cc21 | µM | 0.7 |
| CNc1nc(CC(C)C)cc2c1OC1(CCC1)C[C@@H]2NC[C@@H](O)[C@H](Cc1ccc2c(c1)OCO2)NC(=O)COC | µM | 9.2 |
| CO[C@H](C)C(=O)N[C@@H](Cc1ccc2c(c1)OCO2)[C@H](O)CN[C@H]1CC(C)(C)Oc2ncc(CC(C)(C)C)cc21 | µM | 10.5 |
| CC(C)(C)Cc1cnc2c(c1)[C@@H](NC[C@@H](O)[C@H](Cc1ccc(F)cc1)NC(=O)[C@@H]1CN(Cc3ccccc3)CCO1)CC1(CCC1)O2 | µM | 8.2 |
| CC(=O)N[C@@H](Cc1cc(F)cc(-c2cscn2)c1)[C@H](O)CN[C@H]1CC2(CCC2)Oc2ncc(CC(C)(C)C)cc21 | µM | 2.7 |
| CO[C@H](C)C(=O)N[C@@H](Cc1ccc2c(c1)OCO2)[C@H](O)CN[C@H]1CC2(CCC2)Oc2ncc(CC(C)(C)F)cc21 | µM | 5 |
| COCC(=O)N[C@@H](Cc1ccc(F)c(-c2cncs2)c1)[C@H](O)CN[C@H]1CC2(CCC2)Oc2ncc(CC(C)(C)C)cc21 | µM | 0.2 |
| COCC(=O)N[C@@H](Cc1ccc(-c2nccs2)c(F)c1)[C@H](O)CN[C@H]1CC2(CCC2)Oc2ncc(CC(C)(C)C)cc21 | µM | 0.7 |
| C#Cc1cc2c(c(-n3ccnc3)c1)OC1(CCC1)C[C@@H]2NC[C@@H](O)[C@H](Cc1cc(F)cc(F)c1)NC(=O)COC | µM | 0.2 |
